This collection of values is drawn from paper PMC9291755.

experiment-summary: Phase 1 randomized open-label crossover food-effect pharmacokinetic study, plasma vonoprazan by LC-MS/MS
Assay type: in vivo, healthy Caucasian male and female subjects (human)
condition-context: both sexes, human, plasma, po, 20 mg, single 20-mg oral dose, fed (high-fat breakfast), n = 24, plasma; read-out: Cmax, mean (SD)
parameter: Cmax (ng/mL)
Give bare numbers, in ng/mL.

Exam item: // lookup Cmax for CNCc1cc(-c2ccccc2F)n(S(=O)(=O)c2cccnc2)c1.O=C(O)/C=C/C(=O)O [vonoprazan]
Marked response: 18.9

----------
experiment-summary: Phase 1 randomized open-label crossover food-effect pharmacokinetic study, plasma vonoprazan by LC-MS/MS
Format: in vivo, healthy Caucasian male and female subjects (human)
condition-context: both sexes, human, plasma, po, 20 mg, single 20-mg oral dose, fasted, N = 24; read-out: AUC0‐24, least-squares mean
parameter: AUC

Exam item: Data request, read-out AUC, for CNCc1cc(-c2ccccc2F)n(S(=O)(=O)c2cccnc2)c1.O=C(O)/C=C/C(=O)O
Marked response: 154 ng·h/mL
